biological target: human D4 receptor (D4.2 sub-type) (Homo sapiens, UniProt P21917, DEL271-302); assay: D4 receptor binding assay (3H-spiperone displacement); details: @ 1 μM test compound; 3H-spiperone binding; read-out: D4 RBA % Inhibition (@ 1 μM)
Sequence (P21917 with tags, fused parts or gaps DEL271-302): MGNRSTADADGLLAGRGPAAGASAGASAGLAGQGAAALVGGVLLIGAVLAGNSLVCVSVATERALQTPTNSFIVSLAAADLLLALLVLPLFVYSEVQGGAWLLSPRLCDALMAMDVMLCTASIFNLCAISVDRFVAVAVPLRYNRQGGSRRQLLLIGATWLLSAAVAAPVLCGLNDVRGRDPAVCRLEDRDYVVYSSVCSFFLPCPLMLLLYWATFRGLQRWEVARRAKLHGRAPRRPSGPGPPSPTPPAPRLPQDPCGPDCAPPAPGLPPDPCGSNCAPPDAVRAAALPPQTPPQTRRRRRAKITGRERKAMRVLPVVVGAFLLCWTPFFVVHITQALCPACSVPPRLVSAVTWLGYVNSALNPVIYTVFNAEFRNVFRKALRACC
Structures can show the parent of a compound that is named as a salt.
Below: a set of entries, each annotated with reported inhibition at 1 µM.
Respond with the bare value in %.

{"columns": ["compound", "result-units", "inhibition at 1 µM"],
 "data": [
  ["Fc1ccccc1N1CCN(CCCOc2cccc(-c3noc4ccsc34)c2)CC1 [Compound 12]", "%", 94],
  ["Clc1ccc(CNCCOc2cccc(-c3noc4ccsc34)c2)cc1Cl [Compound 22]", "%", 99],
  ["c1ccc(CNCCOc2cccc(-c3noc4ccsc34)c2)cc1 [Compound 31, hydrochloride]", "%", 100],
  ["c1cc(OCCCNC2Cc3ccccc3C2)cc(-c2noc3ccsc23)c1 [Compound 44]", "%", 96],
  ["CCCC1CCN(CCOc2cccc(-c3noc4ccsc34)c2)CC1 [Compound 60]", "%", 82],
  ["FC(F)(F)c1ccccc1CNCCCOc1cccc(-c2noc3ccsc23)c1 [Compound 57]", "%", 46],
  ["c1cc(OCCNCc2cccs2)cc(-c2noc3ccsc23)c1 [Compound 24]", "%", 95],
  ["Fc1cccc(F)c1CNCCOc1cccc(-c2noc3ccsc23)c1 [Compound 50]", "%", 65]
]}

query: What reported inhibition at 1 µM corresponds to FC(F)(F)c1ccccc1CNCCOc1cccc(-c2noc3ccsc23)c1 [Compound 51] on human D4 receptor (D4.2 sub-type) (Homo sapiens, UniProt P21917, DEL271-302)?
result: 58

Values compiled from patent US7091199B1.
